Every entry's value here was drawn from paper PMC6475490.

molecular target: UniProt P31652; experiment: SERT-mediated [3H]5-HT release assay in rat brain synaptosomes; format: biochemical; conditions: relative to methcathinone 1
Sequence (P31652 whole entry): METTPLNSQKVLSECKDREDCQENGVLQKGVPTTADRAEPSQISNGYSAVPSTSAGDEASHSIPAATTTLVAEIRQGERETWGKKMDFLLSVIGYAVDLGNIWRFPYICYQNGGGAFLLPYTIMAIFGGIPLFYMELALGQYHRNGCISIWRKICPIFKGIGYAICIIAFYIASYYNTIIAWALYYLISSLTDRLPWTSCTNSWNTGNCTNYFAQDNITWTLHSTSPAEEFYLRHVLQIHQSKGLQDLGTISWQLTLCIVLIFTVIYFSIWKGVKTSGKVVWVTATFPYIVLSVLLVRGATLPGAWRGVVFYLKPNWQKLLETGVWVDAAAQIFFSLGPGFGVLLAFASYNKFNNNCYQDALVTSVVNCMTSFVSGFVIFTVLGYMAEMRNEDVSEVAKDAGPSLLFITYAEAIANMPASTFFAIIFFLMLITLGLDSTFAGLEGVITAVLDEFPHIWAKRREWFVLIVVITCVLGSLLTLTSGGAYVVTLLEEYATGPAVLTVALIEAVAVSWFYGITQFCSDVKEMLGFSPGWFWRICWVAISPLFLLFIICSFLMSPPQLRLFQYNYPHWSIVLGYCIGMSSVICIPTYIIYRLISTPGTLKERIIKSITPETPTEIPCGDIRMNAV
Readout Type: fold more potent at 5-HT release (SERT) compared to 1 (fold)

[
  {
    "Molecule": "CNC(C)C(=O)c1ccc(C)c(Cl)c1 (stereo not drawn)",
    "Endpoint Result": 102
  },
  {
    "Molecule": "CNC(C)C(=O)c1cccc(C(F)(F)F)c1 (stereo not drawn)",
    "Endpoint Result": 14
  },
  {
    "Molecule": "CNC(C)C(=O)c1ccc(Br)cc1 (stereo not drawn)",
    "Endpoint Result": 100
  },
  {
    "Molecule": "CNC(C)C(=O)c1cccc(C)c1 (stereo not drawn)",
    "Endpoint Result": 14.6
  },
  {
    "Molecule": "CNC(C)C(=O)c1ccc(C)cc1 (stereo not drawn) [Compound 24, mephedrone, reference compound]",
    "Endpoint Result": 36
  },
  {
    "Molecule": "CNC(C)C(=O)c1c[nH]c2ccccc12 (stereo not drawn)",
    "Endpoint Result": 103
  },
  {
    "Molecule": "CNC(C)C(=O)c1cccc(F)c1 (stereo not drawn)",
    "Endpoint Result": 2.9
  },
  {
    "Molecule": "CNC(C)C(=O)c1cccc2ccccc12 (stereo not drawn)",
    "Endpoint Result": 198
  },
  {
    "Molecule": "CNC(C)C(=O)c1ccc(C(F)(F)F)cc1 (stereo not drawn)",
    "Endpoint Result": 15
  },
  {
    "Molecule": "CNC(C)C(=O)c1cccc(Br)c1 (stereo not drawn)",
    "Endpoint Result": 31
  },
  {
    "Molecule": "CNC(C)C(=O)c1ccccc1C (stereo not drawn)",
    "Endpoint Result": 12
  },
  {
    "Molecule": "CNC(C)C(=O)c1ccc(F)cc1 (stereo not drawn)",
    "Endpoint Result": 2.9
  }
]
